Molecular target: Glutamate racemase (Streptococcus pneumoniae serotype 2 (strain D39 / NCTC 7466), UniProt Q04IS7)
Sequence (Q04IS7 whole entry): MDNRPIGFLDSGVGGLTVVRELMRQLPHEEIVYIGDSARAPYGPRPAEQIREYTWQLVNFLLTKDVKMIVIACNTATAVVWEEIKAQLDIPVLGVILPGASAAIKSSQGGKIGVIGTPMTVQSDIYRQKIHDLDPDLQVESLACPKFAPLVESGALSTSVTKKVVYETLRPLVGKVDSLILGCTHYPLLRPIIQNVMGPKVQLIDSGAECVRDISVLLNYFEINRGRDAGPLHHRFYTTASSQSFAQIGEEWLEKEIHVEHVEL
Assay: Inhibition of Streptococcus pneumoniae glutamate racemase
Recorded IC50 values for a group of compounds are listed next.
assay.endpoint: IC50 (µM)

[[record]]
smiles_notation = "N[C@H](C[C@H](C(=O)O)c1ccc(NC(=O)Nc2ccccc2)cc1)C(=O)O"
experimental_value = 1.37

[[record]]
smiles_notation = "N[C@H](C[C@H](C(=O)O)c1cccc(-c2ccco2)c1)C(=O)O"
experimental_value = 1.73

